biological target: phosphorylation levels of ERK1/2 in AsPC-1 (homozygous KRAS-G12D) cells (Homo sapiens, UniProt P01116, G12D); experiment: Cellular phospho-ERK assay in AsPC-1 cells (Alpha Screen), assay medium without fetal bovine serum; details: phospho-ERK AlphaScreen, 18 h;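 further: signal taken as phospho-ERK over total ERK per well, both detected in one multiplex bead assay, EC50 from four-parameter logistic fit of dose-response curves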
Sequence (P01116 1-186 G12D): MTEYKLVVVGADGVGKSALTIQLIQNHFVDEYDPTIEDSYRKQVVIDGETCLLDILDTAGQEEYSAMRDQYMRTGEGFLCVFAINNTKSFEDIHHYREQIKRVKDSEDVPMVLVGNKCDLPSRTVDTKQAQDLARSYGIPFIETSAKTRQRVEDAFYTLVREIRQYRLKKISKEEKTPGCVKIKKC
*1 amine or outer side, *2 acyl side, *3 side chain or, on linkers, in order; H or OH if unused. Where a SMILES comes first, the peptide text is derived from it. [ ]: non-standard residue; d: D form. Ala(pyrimidin-5-yl) = N[C@@H](Cc1cncnc1)C(=O)O; Phe(3-F) = N[C@@H](Cc1cccc(F)c1)C(=O)O; X28 = O=C([C@H](Cc1ncccn1)N[*:1])[*:2]; Phe(2-F) = N[C@@H](Cc1ccccc1F)C(=O)O; X1 = O=C(C12CC(CN[*:1])(C1)C2)[*:2]; Ala(cPr) = N[C@@H](CC1CC1)C(=O)O; NMeF = CN[C@@H](Cc1ccccc1)C(=O)O; PhLac = O=C(O)[C@@H](O)Cc1ccccc1; Cba = N[C@@H](CC1CCC1)C(=O)O; hLeu = CC(C)CC[C@H](N)C(=O)O; NMeA = CN[C@@H](C)C(=O)O
Assay Readout: EC50 (µM)
Just the number in µM, nothing appended.

1) CC(C)CC[C@@H]1NC(=O)[C@H](Cc2cccc(F)c2)NC(=O)[C@H](CC2CCC2)NC(=O)[C@H](Cc2cncnc2)NC(=O)[C@H](C)N(C)C(=O)[C@H](Cc2ccccc2)OC(=O)C23CC(CNC(=O)[C@H](Cc4ccccc4)N(C)C1=O)(C2)C3 [compound 303] (cyclo([Cba][Phe(3-F)][hLeu][NMeF][X1][PhLac][NMeA][Ala(pyrimidin-5-yl)])) | 0.806

// switching to the query compound
Please report EC50 for the following compound: CC(C)CC[C@@H]1NC(=O)[C@H](Cc2ccccc2F)NC(=O)[C@H](CC2CC2)NC(=O)[C@H](Cc2ncccn2)NC(=O)[C@H](C)N(C)C(=O)[C@H](Cc2ccccc2)OC(=O)C23CC(CNC(=O)[C@H](Cc4ccccc4)N(C)C1=O)(C2)C3 [compound 281] (cyclo([Ala(cPr)][Phe(2-F)][hLeu][NMeF][X1][PhLac][NMeA][X28])) 9.89

Recorded values, source patent US20260001914A1.
